STUDY_SYSTEM: ErbB-2/3 receptor-Ig fusion (human, UniProt P04626 23-652; P04626 23-645; P21860 20-643; P04626 23-645)
TEST_DETAILS: phage ELISA, competition with soluble ErbB-2/3-Ig
MEASURED_QUANTITY: pEC50
When answering, recall that pEC50 equals minus log10 of the concentration in mol/L, and write that number alone.

# example entries with known answers
INSERT INTO results (binder, measured_result) VALUES
  ('HRG8 (HRG-β1 177-228 fused via (GGGS)3 to pIII 323, displayed on phage) (ligand, human, not shown: large carriers, monovalent phage display; also called pHRG8-g3; wild-type HRG-β1 EGF-phage) SHLVKCAEKEKTFCVNGGECFMVKDLSNPSRYLCKCPNEFTGDRCQNYVMASGGGSGGGSGGGS', 7.96),
  ('HRG2 (HRG-β1 177-244 fused to pIII 247, displayed on phage) (ligand, human, UniProt Q02297-6 177-244, looked up, not shown: large carriers, monovalent phage display; also called pHRG2-g3) SHLVKCAEKEKTFCVNGGECFMVKDLSNPSRYLCKCPNEFTGDRCQNYVMASFYKHLGIEFMEAEELY', 8.22);

Would you kindly look at the next entry?
Sample HRG11 (HRG-β1 177-230 fused via GGGSGGG to pIII 247, displayed on phage) (ligand, human, not shown: large carriers, monovalent phage display; also called pHRG11-g3) SHLVKCAEKEKTFCVNGGECFMVKDLSNPSRYLCKCPNEFTGDRCQNYVMASFYGGGSGGG ; pEC50 observed: 7.72
